- protocol-notes: Inhibition of Saccharomyces cerevisiae NMT
pIC50: −log10 of the molar value.
measured-parameter: pIC50

molecule_smiles=Cc1ccc2c(c1)c1c(n2C[C@@H](O)CNC2CCCCC2)CCCC1 numeric_readout=7.62

###

- Test system: Candida albicans
- protocol-notes: Antifungal activity against Candida albicans after 24 hrs by serial dilution method
- Format: functional
Reported MIC80 values follow for various compounds
measured-parameter: MIC80 (µg/mL)

molecule_smiles=Cc1ccc2c(c1)c1c(n2CCCNCc2ccc(Cl)cc2)CCCC1 unit_spec=µg/mL limit_qualifier=> numeric_readout=64
molecule_smiles=Cc1c(C(=O)c2ccccn2)oc2cccc(OCCCNCc3cccnc3)c12 unit_spec=µg/mL limit_qualifier== numeric_readout=4
molecule_smiles=Cc1ccc2c(c1)c1c(n2CCCNCc2ccccc2)CCCC1 unit_spec=µg/mL limit_qualifier== numeric_readout=16
molecule_smiles=Cc1ccc2c(c1)c1c(n2CCCNCc2cccc(F)c2)CCCC1 unit_spec=µg/mL limit_qualifier=> numeric_readout=64
molecule_smiles=O=C(NCc1ccccc1)c1ccc2c(c1)c1c(n2CCCNCc2ccccc2)CCCC1 unit_spec=µg/mL limit_qualifier=> numeric_readout=64
molecule_smiles=c1ccc(CNCCCn2c3c(c4cc(CNc5ccccc5)ccc42)CCCC3)cc1 unit_spec=µg/mL limit_qualifier== numeric_readout=32

###

- Tested on: Aspergillus fumigatus
- protocol-notes: Antifungal activity against Aspergillus fumigatus after 7 days by serial dilution method
- Type: functional
- stated-conditions: 168 h
measured-parameter: MIC80

molecule=CCOC(=O)c1ccc2c(c1)c1c(n2CCCNCc2ccccc2)CCCC1 result="> 64 µg/mL"
molecule=COc1ccc(CNCCCn2c3c(c4cc(C)ccc42)CCCC3)cc1 result="16 µg/mL"
molecule=Cc1ccc2c(c1)c1c(n2CCCNCc2cccc(F)c2)CCCC1 result="> 64 µg/mL"
molecule=Cc1ccc2c(c1)c1c(n2CCCNCc2ccccc2Cl)CCCC1 result="> 64 µg/mL"
molecule="Cc1ccc2c(c1)c1c(n2CC(O)CNc2ccccc2)CCCC1 (configuration not stated)" result="> 64 µg/mL"
molecule=Cc1ccc2c(c1)c1c(n2CCCNCc2ccc(Cl)cc2Cl)CCCC1 result="> 64 µg/mL"
molecule=Cc1ccc(C(=O)c2ccc3c(c2)c2c(n3CCCNCc3ccccc3)CCCC2)nc1 result="> 64 µg/mL"
molecule=O=C(Nc1ccccc1)c1ccc2c(c1)c1c(n2CCCNCc2ccccc2)CCCC1 result="> 64 µg/mL"
molecule=CN1CCC(OC(=O)c2ccc3c(c2)c2c(n3CCCNCc3ccccc3)CCCC2)CC1 result="32 µg/mL"
molecule=O=C(OC1CCNCC1)c1ccc2c(c1)c1c(n2CCCNCc2ccccc2)CCCC1 result="> 64 µg/mL"
molecule=OC(Cn1cncn1)(Cn1cncn1)c1ccc(F)cc1F result="> 64 µg/mL"
molecule=O=C(Nc1ccc(Br)cc1)c1ccc2c(c1)c1c(n2CCCNCc2ccccc2)CCCC1 result="64 µg/mL"
molecule=Cc1c(C(=O)c2ccccn2)oc2cccc(OCCCNCc3cccnc3)c12 result="> 64 µg/mL"
molecule="Cc1ccc2c(c1)c1c(n2CC(O)CNCc2ccccc2)CCCC1 (configuration not stated)" result="64 µg/mL"
molecule=O=C(OC1CCCCC1)c1ccc2c(c1)c1c(n2CCCNCc2ccccc2)CCCC1 result="> 64 µg/mL"
molecule=OCc1ccc2c(c1)c1c(n2CCCNCc2ccccc2)CCCC1 result="> 64 µg/mL"
molecule=Cc1ccc2c(c1)c1c(n2CCCNCc2ccc(Cl)cc2)CCCC1 result="16 µg/mL"
molecule=O=C(Oc1ccccc1)c1ccc2c(c1)c1c(n2CCCNCc2ccccc2)CCCC1 result="64 µg/mL"
molecule=O=C(OCc1ccc2c(c1)c1c(n2CCCNCc2ccccc2)CCCC1)c1ccccc1 result="> 64 µg/mL"
molecule=Cc1ccc2c(c1)c1c(n2CCCNc2ccccc2)CCCC1 result="16 µg/mL"
molecule=Cc1ccc2c(c1)c1c(n2CCCNCc2ccc(F)cc2)CCCC1 result="32 µg/mL"
molecule=O=C(c1ccc2c(c1)c1c(n2CCCNCc2ccccc2)CCCC1)c1nccs1 result="> 64 µg/mL"

###

- Test system: Trichophyton rubrum
- protocol-notes: Antifungal activity against Trichophyton rubrum by serial dilution method
- Format: functional
measured-parameter: MIC80 (µg/mL)

molecule=Cc1c(C(=O)c2ccccn2)oc2cccc(OCCCNCc3cccnc3)c12 measured_parameter=MIC80 limit_qualifier== numeric_readout=64
molecule=Cc1ccc2c(c1)c1c(n2CCCNCc2cccc(Cl)c2)CCCC1 measured_parameter=MIC80 limit_qualifier=> numeric_readout=64
molecule=Cc1ccc2c(c1)c1c(n2CCCNCc2cccnc2)CCCC1 measured_parameter=MIC80 limit_qualifier== numeric_readout=4
molecule=Cc1ccc2c(c1)c1c(n2CCCNCc2ccc(Cl)cc2Cl)CCCC1 measured_parameter=MIC80 limit_qualifier=> numeric_readout=64
molecule="Cc1ccc2c(c1)c1c(n2CC(O)CNCc2ccccc2)CCCC1 (stereo unspecified)" measured_parameter=MIC80 limit_qualifier== numeric_readout=16
molecule=Cc1ccc2c(c1)c1c(n2C[C@@H](O)CNC2CCCCC2)CCCC1 measured_parameter=MIC80 limit_qualifier== numeric_readout=16
molecule=Cc1ccc(CNCCCn2c3c(c4cc(C)ccc42)CCCC3)cc1 measured_parameter=MIC80 limit_qualifier== numeric_readout=8
molecule=Cc1ccc2c(c1)c1c(n2CCCNCc2ccccc2)CCCC1 measured_parameter=MIC80 limit_qualifier== numeric_readout=4
molecule=Cc1ccc2c(c1)c1c(n2CCCNCc2ccc(F)cc2)CCCC1 measured_parameter=MIC80 limit_qualifier== numeric_readout=8
molecule="OC(Cn1cncn1)(Cn1cncn1)c1ccc(F)cc1F [FLUCONAZOLE]" measured_parameter=MIC80 limit_qualifier== numeric_readout=1
molecule=COc1ccc(CNCCCn2c3c(c4cc(C)ccc42)CCCC3)cc1 measured_parameter=MIC80 limit_qualifier== numeric_readout=8
molecule=Cc1ccc2c(c1)c1c(n2CCCNCc2cccc(F)c2)CCCC1 measured_parameter=MIC80 limit_qualifier== numeric_readout=64
molecule=Cc1ccc2c(c1)c1c(n2CCCNCc2ccc(Cl)cc2)CCCC1 measured_parameter=MIC80 limit_qualifier=> numeric_readout=64
molecule=Cc1ccc2c(c1)c1c(n2CCCNc2ccccc2)CCCC1 measured_parameter=MIC80 limit_qualifier== numeric_readout=16
molecule=Cc1ccc2c(c1)c1c(n2CCCNCc2ccccc2Cl)CCCC1 measured_parameter=MIC80 limit_qualifier=> numeric_readout=64
molecule=Cc1ccc2c(c1)c1c(n2CCCNCc2ccccc2F)CCCC1 measured_parameter=MIC80 limit_qualifier== numeric_readout=64

###

- System: Candida parapsilosis
- protocol-notes: Antifungal activity against Candida parapsilosis after 24 hrs by serial dilution method
- Format: functional
- stated-conditions: Lodderomyces parapsilosis
Reported MIC80 values follow for various molecules
measured-parameter: MIC80

molecule=O=C(c1ccc2c(c1)c1c(n2CCCNCc2ccccc2)CCCC1)c1ccccn1 measured_parameter=MIC80 result="> 64 µg/mL"
molecule=O=C(Oc1ccccc1)c1ccc2c(c1)c1c(n2CCCNCc2ccccc2)CCCC1 measured_parameter=MIC80 result="> 64 µg/mL"
molecule=O=C(OCc1ccc2c(c1)c1c(n2CCCNCc2ccccc2)CCCC1)c1ccccc1 measured_parameter=MIC80 result="> 64 µg/mL"
molecule=O=C(Nc1ccccc1)c1ccc2c(c1)c1c(n2CCCNCc2ccccc2)CCCC1 measured_parameter=MIC80 result="> 64 µg/mL"
molecule="OC(Cn1cncn1)(Cn1cncn1)c1ccc(F)cc1F [FLUCONAZOLE]" measured_parameter=MIC80 result="4 µg/mL"
molecule=Cc1ccc2c(c1)c1c(n2CCCNCc2cccc(Cl)c2)CCCC1 measured_parameter=MIC80 result="> 64 µg/mL"
molecule=Cc1ccc2c(c1)c1c(n2C[C@@H](O)CNC2CCCCC2)CCCC1 measured_parameter=MIC80 result="16 µg/mL"
molecule=CN1CCC(OC(=O)c2ccc3c(c2)c2c(n3CCCNCc3ccccc3)CCCC2)CC1 measured_parameter=MIC80 result="64 µg/mL"
molecule=Cc1ccc2c(c1)c1c(n2CCCNCc2ccc(Cl)cc2)CCCC1 measured_parameter=MIC80 result="32 µg/mL"
molecule=Cc1ccc2c(c1)c1c(n2CCCNCc2cccnc2)CCCC1 measured_parameter=MIC80 result="64 µg/mL"
molecule=Cc1ccc2c(c1)c1c(n2CCCNCc2ccccc2F)CCCC1 measured_parameter=MIC80 result="> 64 µg/mL"
molecule=Cc1ccc2c(c1)c1c(n2CCCNc2ccccc2)CCCC1 measured_parameter=MIC80 result="16 µg/mL"
molecule=Cc1ccc2c(c1)c1c(n2CCCNCc2cccc(F)c2)CCCC1 measured_parameter=MIC80 result="64 µg/mL"
molecule=O=C(NCc1ccccc1)c1ccc2c(c1)c1c(n2CCCNCc2ccccc2)CCCC1 measured_parameter=MIC80 result="> 64 µg/mL"
molecule=c1ccc(CNCCCn2c3c(c4cc(CNc5ccccc5)ccc42)CCCC3)cc1 measured_parameter=MIC80 result="> 64 µg/mL"
molecule=O=C(OC1CCNCC1)c1ccc2c(c1)c1c(n2CCCNCc2ccccc2)CCCC1 measured_parameter=MIC80 result="32 µg/mL"
molecule=Cc1ccc2c(c1)c1c(n2CCCNCc2ccc(F)cc2)CCCC1 measured_parameter=MIC80 result="32 µg/mL"
molecule=Cc1ccc(C(=O)c2ccc3c(c2)c2c(n3CCCNCc3ccccc3)CCCC2)nc1 measured_parameter=MIC80 result="> 64 µg/mL"
molecule=Cc1ccc2c(c1)c1c(n2CCCNCc2ccccc2Cl)CCCC1 measured_parameter=MIC80 result="> 64 µg/mL"
